TEST_NAME: Viability of HaCaT human keratinocytes (mitochondrial metabolic activity, tetrazolium salts / MTT)
CONDITIONS_USED: HaCaT cells (immortalized keratinocytes)
ASSAY_READOUT: cytotoxicity at 2 h, 0.5 % (%)
Return type: number; implicit unit %.

// query I am curious: what cytotoxicity at 2 h, 0.5 % value has been reported for CC(C)(CO)[C@@H](O)C(=O)NCCCO [panthenol, Panthenol] ?
// result 30

====

TEST_NAME: Viability of HaCaT human keratinocytes (mitochondrial metabolic activity, tetrazolium salts / MTT)
CONDITIONS_USED: HaCaT cells (immortalized keratinocytes)
ASSAY_READOUT: cytotoxicity at 1 %
Number first, unit second.

// query I am curious: what cytotoxicity at 1 % value has been reported for CC(C)(CO)[C@@H](O)C(=O)NCCCO ?
// result 30%
